Test: Neuroprotective activity against oxygen-glucose deprivation-induced neuronal cell death in Sprague-Dawley rat CGN cells assessed as cell viability at 10 uM preincubated for 24 hrs followed by induction of oxygen-glucose deprivation measured after 24 hrs by MTT assay (reference value: 48.7%)
Assay type: functional
Settings: read-out: Activity
Values of viability at 10 µM strictly less than 70% map to true (1), and values of at least 70% map to false (0).

Field: below-cutoff. Rule: recorded viability at 10 µM strictly less than 70%. Subject: COc1cc2c(cc1C(C)=O)CC[C@H]1C(C)(C)[C@@H](OC(C)=O)CC[C@]21C
true (1)

Field: below-cutoff. Rule: recorded viability at 10 µM strictly less than 70%. Subject: COc1cc2c(cc1C(C)=O)CC[C@H]1C(C)(C)[C@@H](O)CC[C@]21C
false (0)

Field: below-cutoff. Rule: recorded viability at 10 µM strictly less than 70%. Subject: C#CCNC(=O)c1cc2c(cc1OC)[C@@]1(C)CC[C@H](O)C(C)(C)[C@@H]1CC2
true (1)

Field: below-cutoff. Rule: recorded viability at 10 µM strictly less than 70%. Subject: COc1cc2c(cc1C(C)=O)CC[C@H]1C(C)(C)[C@@H](OC(=O)C(F)(F)F)CC[C@]21C
true (1)

Field: below-cutoff. Rule: recorded viability at 10 µM strictly less than 70%. Subject: CCCCNC(=O)c1cc2c(cc1OC)[C@@]1(C)CC[C@H](O)C(C)(C)[C@@H]1CC2
false (0)
